These entries and their values trace back to patent US20240075137A1.

Could you please report measured gMFIr Expi cyno OE/par for the items listed next?
Biological target: T1, cynomolgus PVRIG on cells (cynomolgus, UniProt A0A2K5WVV8 41-322)
T1 construct: whole, on cells; also called cPVRIG; expi cPVRIG cells
T1 sequence: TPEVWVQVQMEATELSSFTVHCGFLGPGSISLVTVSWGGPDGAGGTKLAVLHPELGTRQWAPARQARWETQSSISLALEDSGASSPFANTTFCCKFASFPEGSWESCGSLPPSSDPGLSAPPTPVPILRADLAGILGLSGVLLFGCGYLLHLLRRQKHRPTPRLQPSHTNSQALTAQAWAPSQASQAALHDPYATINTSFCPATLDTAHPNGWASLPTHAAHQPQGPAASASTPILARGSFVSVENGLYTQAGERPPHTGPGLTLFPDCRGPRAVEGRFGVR
Test: FACS, expi cPVRIG over expi parental cells, 3.3ug/ml

Identify the reported gMFIr Expi cyno OE/par for the following entry. CHA.7.510 (antibody, V domains shown) VH: QVTLKESGPGILQPSQTLSLTCSFSGFSLNTSGTGVGWIRQPSGKGLEWLTHIWWNDNKFYNTFLKSRLTISKETSNNQVFLKIASVDTADAATYYCARMAYGNLWFVNWGQGTLVAVST VL: DIVLTQSPASLAVSLGQRASISCRASRSVTISGYSYMYWYQQKPGQPPRLLFYLASNLASGVPARFSGSGSGTDFTLNIHPVEEEDAAIYYCQHSRELPYTFGGGTKLEIK
38.2

Find the measured gMFIr Expi cyno OE/par of CHA.7.524 (antibody, V domains shown) VH: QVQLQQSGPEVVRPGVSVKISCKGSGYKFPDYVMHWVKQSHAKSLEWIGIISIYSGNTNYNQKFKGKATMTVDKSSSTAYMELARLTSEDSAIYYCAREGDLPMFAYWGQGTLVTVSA VL: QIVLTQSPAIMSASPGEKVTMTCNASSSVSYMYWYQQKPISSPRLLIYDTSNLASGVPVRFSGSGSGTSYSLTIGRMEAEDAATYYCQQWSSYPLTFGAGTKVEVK and report it.
66.3

Answer with the recorded gMFIr Expi cyno OE/par for the binder listed here: CHA.7.534 (antibody, V domains shown) VH: EVQLQQSGAELVKPGASVRLSCTASGFSIRDTYIHWVKQRPEQGLDWIGKIDPANGKSEYDPKFQGRATMTTDTSSNTAYLQLSSLTSEDTAVYYCTRYGYYPYFDVWGAGTTVTVFS VL: SIVMTQTPKFLLVSAGDRVAITCKASQSVRHDVVWYQQKPGQSPKLLIYYASSRYTGVPDRFTGSGYGTDFTFTISTVQAEDLALYFCLQDFSSPWTFGGGTKLEIK
46.3
